# TESTED_TARGET: Ybr033w (UniProt P38073)
# Sequence: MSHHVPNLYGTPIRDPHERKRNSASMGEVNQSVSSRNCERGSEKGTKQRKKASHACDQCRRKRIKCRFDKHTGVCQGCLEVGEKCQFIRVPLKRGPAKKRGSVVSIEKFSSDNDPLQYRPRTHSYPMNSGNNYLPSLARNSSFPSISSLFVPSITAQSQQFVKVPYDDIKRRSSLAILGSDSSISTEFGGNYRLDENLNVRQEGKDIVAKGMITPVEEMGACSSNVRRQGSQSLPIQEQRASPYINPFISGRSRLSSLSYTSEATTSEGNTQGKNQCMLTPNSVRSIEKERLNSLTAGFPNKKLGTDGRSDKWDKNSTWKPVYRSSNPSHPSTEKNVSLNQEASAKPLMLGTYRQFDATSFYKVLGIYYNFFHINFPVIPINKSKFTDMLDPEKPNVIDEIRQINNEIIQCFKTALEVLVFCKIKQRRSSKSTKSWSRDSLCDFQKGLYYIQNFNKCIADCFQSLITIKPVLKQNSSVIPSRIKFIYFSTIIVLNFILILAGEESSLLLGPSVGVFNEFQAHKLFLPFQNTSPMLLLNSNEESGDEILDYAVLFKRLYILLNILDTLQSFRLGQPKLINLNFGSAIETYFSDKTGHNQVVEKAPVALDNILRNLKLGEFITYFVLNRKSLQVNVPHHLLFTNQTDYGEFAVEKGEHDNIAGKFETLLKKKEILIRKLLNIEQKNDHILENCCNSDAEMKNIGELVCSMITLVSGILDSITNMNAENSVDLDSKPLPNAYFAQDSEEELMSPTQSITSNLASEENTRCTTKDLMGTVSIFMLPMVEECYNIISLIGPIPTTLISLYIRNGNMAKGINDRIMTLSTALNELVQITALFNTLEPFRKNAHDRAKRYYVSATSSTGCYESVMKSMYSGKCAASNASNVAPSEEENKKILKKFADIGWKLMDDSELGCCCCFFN
# ASSAY_PROTOCOL: PBM E-score (8-mer binding enrichment) (E-score (-0.5 to 0.5)); higher = stronger / more preferred TF binding
# CONDITIONS: protein concentration: 200 nM; construct: GST-full length
The full ranking holds about 33,000 sequences; the median of “E-score (-0.5 to 0.5)” is about -0.012, and the highest 2% start at about 0.29. This is one part of a sample in which the highest values are shown more often than they occur.
OBSERVABLE: PBM E-score

ordered_residues=CAAAAAAA observed_result=0.293
ordered_residues=AACGCGAT observed_result=0.0217
ordered_residues=CCTAAATA observed_result=0.118
ordered_residues=CGCAAGCC observed_result=0.0476
ordered_residues=CATGTTCC observed_result=0.0191
ordered_residues=GATAAAGA observed_result=0.154
ordered_residues=AATTGTCA observed_result=0.139
ordered_residues=GAAAAAGC observed_result=0.239
ordered_residues=AATTGTCC observed_result=0.163
ordered_residues=GCCGTTTA observed_result=0.0411
ordered_residues=GATAAATA observed_result=0.4
ordered_residues=ACCAAAAT observed_result=0.111
ordered_residues=GGTGGAAA observed_result=-0.00937
ordered_residues=GGAAAATA observed_result=0.414
ordered_residues=ACGTTACT observed_result=0.0376
ordered_residues=GGAAATCC observed_result=-0.00538
ordered_residues=CTGGATTA observed_result=0.309
ordered_residues=CCCAAAAA observed_result=-0.19
ordered_residues=GAAAATCC observed_result=0.308
ordered_residues=ACCTTTTA observed_result=-0.0294
ordered_residues=AATAACCG observed_result=-0.0165
ordered_residues=AATGATGT observed_result=0.17
ordered_residues=CAAGTTAG observed_result=0.0992
ordered_residues=GAGAGTCA observed_result=-0.0369
ordered_residues=CGAAGCGA observed_result=-0.0591
ordered_residues=CTCCGTTC observed_result=-0.0235
ordered_residues=ACCAAAAC observed_result=0.0839
ordered_residues=ACTTATGA observed_result=0.171
ordered_residues=ACGGATAA observed_result=0.276
ordered_residues=ACTCGAAG observed_result=-0.242
ordered_residues=AATAAAAT observed_result=0.304
ordered_residues=AGAAAATC observed_result=0.232
ordered_residues=CGGAAAGA observed_result=-0.0353
ordered_residues=CCTAGATA observed_result=-0.0707
ordered_residues=GCAGCGTA observed_result=-0.106
ordered_residues=AAAGTTAC observed_result=0.224
ordered_residues=CATAAATC observed_result=0.146
ordered_residues=AAACTTAT observed_result=0.379
ordered_residues=AGCACTCC observed_result=-0.0492
ordered_residues=GATAAATC observed_result=0.304
ordered_residues=CAGTTATA observed_result=0.074
ordered_residues=TTACCAAA observed_result=0.235
ordered_residues=ACCAAAAA observed_result=0.332
ordered_residues=GATTGTAC observed_result=0.0766
ordered_residues=ACGGATCA observed_result=0.236
ordered_residues=AGTTGTTC observed_result=0.337
ordered_residues=AATAAAAA observed_result=0.252
ordered_residues=CACCAGTC observed_result=-0.196
ordered_residues=ACGGTAGC observed_result=-0.123
ordered_residues=TCTAAGCA observed_result=-0.00029
ordered_residues=GATTGTTA observed_result=0.0997
ordered_residues=GTGCGGTA observed_result=-0.0389
ordered_residues=CCTGCAAC observed_result=-0.034
ordered_residues=AATTGTTG observed_result=0.114
ordered_residues=GTGTAAAC observed_result=-0.00524
ordered_residues=ACTAAATC observed_result=0.278
ordered_residues=AATTGTTC observed_result=0.339
ordered_residues=CGTTCTAC observed_result=0.00885
ordered_residues=CCTTGGGA observed_result=0.021
ordered_residues=AGTAGCTG observed_result=0.0396
ordered_residues=GCAAAATA observed_result=0.287
ordered_residues=AGCTTGCC observed_result=-0.231
ordered_residues=ATTTCTTA observed_result=0.195
ordered_residues=CAAAAAAC observed_result=0.146
ordered_residues=CATCTTCC observed_result=0.0897
ordered_residues=AGTAGATC observed_result=0.164
ordered_residues=GAGCGTTA observed_result=0.113
ordered_residues=AGTTCTTC observed_result=0.3
ordered_residues=AAAGTTGT observed_result=0.302
ordered_residues=GGTTCTGA observed_result=-0.0472
ordered_residues=ACTAAATA observed_result=0.322
ordered_residues=CCAAAAAA observed_result=0.332
ordered_residues=ATTTCTTG observed_result=0.198
ordered_residues=AGCAAAAA observed_result=0.319
ordered_residues=TAAGTTAA observed_result=0.206
ordered_residues=CAGACTTA observed_result=-0.189
ordered_residues=TATTTGAA observed_result=0.255
ordered_residues=TCATAACA observed_result=0.23
ordered_residues=GATAAAGC observed_result=0.159
ordered_residues=CAAGTCTC observed_result=-0.0267
ordered_residues=CCGGATCC observed_result=-0.129
ordered_residues=GAAAAATA observed_result=0.397
ordered_residues=AAAGTTAG observed_result=0.297
ordered_residues=CAAACTGA observed_result=0.14
